Each record here notes measured growth inhibition.
- run.description: NCI Yeast Anticancer Drug Screen. Data for the rad50 strain (AID 155);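 note: 0% = growth of vehicle-only cultures of the same strain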
- condition: S. cerevisiae rad50 strain growth inhibition; at 50.0 µM; stronger effect = higher value
- Method: Growth inhibition of yeast strains with defined genetic alterations is measured as a screen for potential anti-cancer activity. Selected strains with alterations in DNA damage repair or cell cycle control were exposed to compounds and growth inhibition was measured relative to vehicle treated controls. The strain used in this assay is rad50
Compounds without any hit were thinned out: in the full panel of roughly 79,000, 15% have a hit.
Value expressed in %; do not type the unit.

Examples with answers:
INSERT INTO results (molecule, display_unit, recorded_value) VALUES
  ('BrCc1ccc([Si](c2ccccc2)(c2ccccc2)c2ccc(CBr)cc2)cc1', '%', 48.1),
  ('Cc1cc(O)n(Cc2ccccc2)c(=O)c1', '%', 48.5),
  ('C=CCOC(=O)N(C(=O)OCC=C)C(Cc1ccc(O)cc1)C(=O)NNc1ccccc1 (configuration not stated)', '%', 53.4),
  ('COc1ccccc1C(=O)Nc1ccc(Cl)c(C(=O)OC(C)C)c1', '%', -1.8),
  ('C#CC(CC(C)CC(C)(C)C)NC (configuration not stated)', '%', 97.2),
  ('O=c1cc(N=Nc2ccc(Cl)c(Cl)c2)[nH]c(=O)[nH]1', '%', 85.8);

(Q) So what does the record say about growth inhibition for O=[N+]([O-])c1ccc(C(Cl)Cc2ccc(Cl)cc2)cc1 (configuration not stated) ?
(A) 90.2
